I'd be grateful if you could share measured EC50 for these entries.
Tested on: Rat whole blood (RWB)
measurement.notes: LTB4 secretion assay in RWB (rat whole blood)
Assay type: cell-based
condition.parameters: Rattus norvegicus

Working through the 3 molecules below one at a time, give EC50 for each.
1. Cc1cc(CNc2nc3ccc(NC4COC4)cc3n2C)cc(C)c1Oc1ncc(Cl)cn1
2. Nc1ccc2nc(N)n(Cc3ccc(Oc4ccc(Cl)cc4)cc3)c2c1
3. Nc1ccc2[nH]c(NCCc3ccc(F)cc3)nc2c1

Reply:
> 20 µM
< 10 µM
< 10 µM

Please give EC50 for each item listed below.
1. Cn1c(NCc2ccc(C(=O)Nc3ccc(Cl)cn3)cc2)nc2ccc(NC3COC3)cc21
2. CCn1c(NCc2ccc(Oc3ncc(C(F)(F)F)cn3)cc2)nc2ccc(Nc3cc(C)[nH]n3)cc21
3. CC(Nc1nc2cc(N)ccc2[nH]1)c1ccc(Oc2ccc(Cl)cc2)cc1 (stereo not drawn)
4. Cn1c(NCc2ccc(Oc3ccc(C#N)cn3)cc2)nc2ccc(N)cc21
5. CN(C)c1nc2cc(NCc3ccc(-c4ccnn4C)cc3)ccc2[nH]1
6. CC(C)(Nc1ccc2[nH]c(NCc3ccc(Oc4ccc(Cl)cc4)cc3)nc2c1)C(N)=O
7. Cc1cc(Nc2ccc3nc(NCc4ccc(Oc5ncc(OC(F)(F)F)cn5)cc4)n(C)c3c2)n[nH]1
8. OCCNc1nc2ccc(NC3COC3)cc2n1Cc1ccc(Oc2ccc(Cl)cn2)cc1

Reply:
["> 20 µM", "< 10 µM", "< 10 µM", "< 10 µM", "10 to 20 µM", "> 20 µM", "< 10 µM", "< 10 µM"]
